# study_target: Carbonic anhydrase 1 (Homo sapiens, UniProt P00915)
# Sequence (P00915 whole entry): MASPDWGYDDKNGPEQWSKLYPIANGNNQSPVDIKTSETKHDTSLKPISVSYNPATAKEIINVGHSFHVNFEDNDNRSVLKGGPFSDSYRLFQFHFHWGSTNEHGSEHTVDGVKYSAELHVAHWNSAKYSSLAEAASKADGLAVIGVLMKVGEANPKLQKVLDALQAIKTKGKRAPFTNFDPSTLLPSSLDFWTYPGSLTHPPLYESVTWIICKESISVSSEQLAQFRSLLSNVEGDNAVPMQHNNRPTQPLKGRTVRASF
# assay: Inhibition of human recombinant carbonic anhydrase 1 preincubated for 15 mins by stopped flow CO2 hydration assay
pKi: −log10 of the molar value.
Some compounds, each annotated with its measured pKi.

These recorded examples may help you get a feel for the data.
- query_smiles: "CC1=CC(=O)N(CC(=O)c2ccc(-c3ccccc3)cc2)S(=O)(=O)O1"
  readout: "pKi"
  reported_value: "< 5.00"
- query_smiles: "CC1=CC(OCC(=O)c2ccc(Cl)cc2Cl)=NS(=O)(=O)O1"
  readout: "pKi"
  reported_value: "< 5.00"
- query_smiles: "Cc1ccccc1CN1C(=O)c2ccccc2S1(=O)=O"
  readout: "pKi"
  reported_value: 5.86

Report measured pKi; entry is "O=C1c2ccccc2S(=O)(=O)N1Cc1cccc(C(F)(F)F)c1"
< 5.00

Report measured pKi; entry is "Cc1ccc(CN2C(=O)c3ccccc3S2(=O)=O)cc1"
< 5.00

Report measured pKi; entry is "O=C1c2ccccc2S(=O)(=O)N1Sc1ccccc1[N+](=O)[O-]"
< 5.00

Report measured pKi; entry is "O=C1c2ccccc2S(=O)(=O)N1Cc1ccc(Br)cc1"
< 5.00

Report measured pKi; entry is "O=C(CN1C(=O)c2ccccc2S1(=O)=O)c1ccc(F)cc1"
5.96

Report measured pKi; entry is "O=C(O)CN1C(=O)c2ccccc2S1(=O)=O"
3.96

Report measured pKi; entry is "O=C1NCc2ccccc21"
< 5.00

Report measured pKi; entry is "COc1cccc(C(=O)CN2C(=O)C=C(C)OS2(=O)=O)c1"
< 5.00

Report measured pKi; entry is "O=C(CN1C(=O)c2ccccc2S1(=O)=O)c1ccc(Cl)cc1Cl"
5.83

Report measured pKi; entry is "CC1=CC(=O)N(Cc2ccc(Cl)cc2)S(=O)(=O)O1"
< 5.00

Report measured pKi; entry is "CC1=CC(=O)N(Cc2ccc([N+](=O)[O-])cc2)S(=O)(=O)O1"
< 5.00

Report measured pKi; entry is "O=C(O)CN1C(=O)c2ccccc2C1=O"
< 5.00

Report measured pKi; entry is "CC1=CC(=O)N(Cc2ccc(F)cc2)S(=O)(=O)O1"
< 5.00

Source listed as ChEMBL document CHEMBL3758171.
